conditions: human gut metagenome, 24 h, 2 µM; further: call rule not given here

- COMPOUND: "OC(CCN1CCCCC1)(c1ccccc1)C1CCCCC1 (stereo not drawn) [TRIHEXYPHENIDYL]"
  Bacterial Biotransformation: "Compound metabolized"
- COMPOUND: "CN1C[C@H](C(=O)N[C@]2(C)O[C@@]3(O)[C@@H]4CCCN4C(=O)[C@H](Cc4ccccc4)N3C2=O)C=C2c3cccc4[nH]cc(c34)C[C@H]21.CN1C[C@H](C(=O)N[C@]2(C)O[C@@]3(O)[C@@H]4CCCN4C(=O)[C@H](Cc4ccccc4)N3C2=O)C=C2c3cccc4[nH]cc(c34)C[C@H]21.O=C(O)C(O)C(O)C(=O)O [ERGOTAMINE TARTRATE]"
  Bacterial Biotransformation: "Compound metabolized"
- COMPOUND: "CN(C)C(=O)C(CCN1CCC(O)(c2ccc(Cl)cc2)CC1)(c1ccccc1)c1ccccc1 [LOPERAMIDE]"
  Bacterial Biotransformation: "Compound metabolized"
